# Test target: T1, human 5T4-His protein (human, UniProt Q13641 32-355)
# T1 construct: also called recombinant 5T4 protein (human 5T4-his tag); human 5T4 protein; not shown: His tag
# T1 sequence (looked up): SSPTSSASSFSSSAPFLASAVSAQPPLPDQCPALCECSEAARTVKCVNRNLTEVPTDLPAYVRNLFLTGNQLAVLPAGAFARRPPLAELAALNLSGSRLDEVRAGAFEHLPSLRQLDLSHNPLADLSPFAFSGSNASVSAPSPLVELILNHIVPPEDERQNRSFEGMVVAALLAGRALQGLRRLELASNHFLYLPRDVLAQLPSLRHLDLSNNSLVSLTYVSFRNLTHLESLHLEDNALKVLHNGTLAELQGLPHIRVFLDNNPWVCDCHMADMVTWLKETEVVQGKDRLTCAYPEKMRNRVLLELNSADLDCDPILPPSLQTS
# Run description: SPR Biacore, Protein A capture
# Method: The binding of the 393E9 humanized antibodies to recombinant 5T4 protein (human 5T4-his tag) was tested with Biacore using a capture method. The mAbs were captured using Protein A chip. A serial dilution of human 5T4-his tag protein was injected over captured antibody for 3 mins at a flow rate of 30 μl/min. The antigen was allowed to dissociate for 280-800 s. All the experiments were carried out on a Biacore T200. Data analysis was carried out using the Biacore T200 evaluation software.
Consider the following binders; for each one, report its koff.
State the value with its unit after it.

- 393E9 chimeric antibody (antibody, V domains shown, chimeric mAb) VH: EVKLVESGGGLVQPGGSLSLSCAASGFTFTDYYMSWVRQPPGKALEWLGFIRNKGNGYTTENSASVKGRFTISRDNSQSILYLQMNALRAEDSATYYCARYRGNPHYAMDYWGQGTSVTVSS VL: DIVLTQFPASLAVSLGQRATISCRASESVEFYGTSFLQWYQQKPGQPPKLLIYGASNVESGVPARFSGSGSGTDFSLSIHPVEEDDIAMYFCQQSRKVPSTFGGGTKLEIK: 0.000107 s⁻¹
- 393E9_hVH6_hVL2 (antibody, V domains shown, humanized; also called Hu393E9-62) VH: EVQLVESGGGLVQPGGSLRLSCAASGFTFTDYYMSWVRQAPGKGLEWVGFIRNKGNGYTTENSASVKGRFTISRDNAKSSLYLQMNSLRAEDTAVYYCARYRGNPHYAMDYWGQGTLVTVSS VL: EIVLTQSPATLSVSPGERATLSCRASESVEFYGTSFLQWYQQKPGQAPRLLIYGASNVESGIPARFSGSGSGTEFTLTISSLQSEDIAVYFCQQSRKVPSTFGGGTKVEIK: 0.000137 s⁻¹

response.value for 393E9_hVH6_hVL5 (antibody, V domains shown, humanized) VH: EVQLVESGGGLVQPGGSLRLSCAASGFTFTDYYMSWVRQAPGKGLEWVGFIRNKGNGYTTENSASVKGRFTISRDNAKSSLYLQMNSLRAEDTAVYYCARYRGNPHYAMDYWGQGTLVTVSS VL: EIVLTQSPGTLSLSPGERATLSCRASESVEFYGTSFLQWYQQKPGQAPRLLIYGASNVESGIPDRFSGSGSGTDFTLTISRLEPEDIAVYFCQQSRKVPSTFGGGTKVEIK (field: koff) = 0.000122 s⁻¹
